Biological target: GIT1 1–370 (Mus musculus, UniProt Q68FF6)
Construct: residues 1-370, E. coli BL21(DE3), N-terminal Trx-His6 tag removed by HRV-3C protease; for BLI biotin-labelled (BLI construct not restated)
Sequence (Q68FF6 1-370): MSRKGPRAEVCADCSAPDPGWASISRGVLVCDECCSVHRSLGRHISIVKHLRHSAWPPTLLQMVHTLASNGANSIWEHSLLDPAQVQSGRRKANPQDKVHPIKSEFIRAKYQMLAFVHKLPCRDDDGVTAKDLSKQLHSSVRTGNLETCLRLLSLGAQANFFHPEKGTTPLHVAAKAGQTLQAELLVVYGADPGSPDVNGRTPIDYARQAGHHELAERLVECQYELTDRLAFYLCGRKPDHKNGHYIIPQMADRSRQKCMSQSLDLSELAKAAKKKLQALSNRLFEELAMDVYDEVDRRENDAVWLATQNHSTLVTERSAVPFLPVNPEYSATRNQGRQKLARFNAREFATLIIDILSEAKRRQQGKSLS
Assay: biochemical
Set-up: Fluorescence polarization competition of FITC-beta-Pix peptide binding to GIT1 1-370
Conditions: read-out: IC50 in FP assay
pIC50: −log10 of the molar value.
Entries and their measured pIC50 follow.

# molecule, recorded_endpoint, result
records = [
    ("O=S(=O)(c1ccc2nc(Nc3ccc(Br)cc3F)ccc2c1)N1CCCCC1", "pIC50", "< 4.00"),
    ("CC(NS(=O)(=O)c1ccc2c(c1)C(=O)c1cc(S(=O)(=O)NC(C)C(=O)O)ccc1-2)C(=O)O (stereo not shown)", "pIC50", "< 3.00"),
    ("Cn1c(=O)c2c(nc(Oc3cccc(C4Nc5ccc6ccccc6c5C5=C4C(=O)CC(C)(C)C5)c3)n2C)n(C)c1=O (stereo not shown)", "pIC50", "< 4.00"),
    ("O=C(Nc1cccc(OCc2cc(=O)n3cc(Cl)ccc3n2)c1)Nc1ccc2c(c1)OCCO2", "pIC50", "< 4.00"),
]

Input line: Endpoint output: pIC50 of Cn1c(=O)n(C)c2cc(CNC34CC5CC(C)(CC(C)(C5)C3)C4)ccc21 . Value?
Output line: < 3.00

Input line: Query (molecule): CN1C(=O)C(c2c(-c3ccc4ccccc4c3)[nH]c3[nH]c(=O)[nH]c(=O)c23)c2ccccc21 (stereo not shown) ; field requested: pIC50
Output line: < 3.00

Input line: Field request: pIC50 | item: CC1=CC(C)(C)Nc2ccc(OC(=O)C(Cc3ccccc3)N3C(=O)C4CCCCC4C3=O)cc21 (stereo not shown)
Output line: < 3.00

----------
biological target: GIT1 1–370 (Mus musculus, UniProt Q68FF6); construct: residues 1-370, E. coli BL21(DE3), N-terminal Trx-His6 tag removed by HRV-3C protease; for BLI biotin-labelled (BLI construct not restated); experiment: biochemical; parameters: Fluorescence polarization competition of FITC-beta-Pix peptide binding to GIT1 1-370; settings: read-out: IC50 in FP assay
pIC50: −log10 of the molar value.
recorded_endpoint: pIC50

Input line: Item: CCS(=O)(=O)c1ccc2c(c1)N(Cc1nc(-c3ccc4c(c3)OCO4)no1)C(=O)CO2 [L111-0329] Test system: GIT1 1–370 (Mus musculus, UniProt Q68FF6) Read-out: pIC50 Value: ?
Output line: < 3.00

Input line: # query: pIC50 | item O=C1Nc2ccccc2Oc2cc(Oc3ccc4c(c3)OCO4)c(S(=O)(=O)N3CCCC3)cc21 [J030-0445] | system: GIT1 1–370 (Mus musculus, UniProt Q68FF6)
Output line: < 3.00

Input line: Lab note: need pIC50 with GIT1 1–370 (Mus musculus, UniProt Q68FF6) for entry Cc1cc(-c2ccc3ccccc3n2)nc2ccc3ccccc3c12 [0443-0206] , please look it up.
Output line: < 3.00

Input line: Param readout= pIC50; system= GIT1 1–370 (Mus musculus, UniProt Q68FF6); entry= C1C2CC3CC1CC(C2)C3Nc1nc2nonc2nc1NC1C2CC3CC(C2)CC1C3 (centres unmarked) [3277-0083] ; returns value.
Output line: < 4.00

Input line: Reported pIC50 for GIT1 1–370 (Mus musculus, UniProt Q68FF6), given CC(CC(=O)Nc1ccc2c(c1)OCCO2)S(=O)(=O)c1ccc2c(c1)NC(=O)CCS2 (centres unmarked) [L705-0544] ?
Output line: < 3.00

Input line: API: value(readout=pIC50, system=GIT1 1–370 (Mus musculus, UniProt Q68FF6)) for record Cc1cc(C)cc(S(=O)(=O)N2CCC3(CC2)NCCN=C3NCc2ccc(C(F)(F)F)cc2)c1 [L676-2486]
Output line: < 4.00

Input line: Requested read-out pIC50, target or system GIT1 1–370 (Mus musculus, UniProt Q68FF6), entry Cc1ccc2cc3c(nc2c1)N(S(=O)(=O)c1ccc2c(c1)OCCO2)CC3 [D470-0645]
Output line: < 4.00

Input line: Query for GIT1 1–370 (Mus musculus, UniProt Q68FF6): what pIC50 does the record show for CSc1cccc(NC(=O)Nc2ccc(Nc3cc(N(C)C)nc(C)n3)cc2)c1 [D638-0006F] ?
Output line: < 3.00
